Value source: PubChem BioAssay AID1159506

Method Summary: Identification of proteins required for the processing of the EWS-FLI1 nascent transcript;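 note: robust z of luciferase light less the median z of siRNAs with the same seed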
Test Parameters: TC32 Ewing sarcoma NR0B1-luc vs CMV-luc (EWS-FLI1 target promoter against control promoter), 48 h; screened at 20 nM (by protocol)
In all, about 59,000 sequences were measured (the read-out: median about -0.00055, lowest 2% from about -2 on). Shown is part of a subset that was picked to be rich in the lowest values.
Reported values of seed-corrected z-score for individual entries
Metric Name: seed-corrected z-score

>  <Residue Sequence>
AAAACACGUCGAAAUCUCC against RPL39

>  <Number>
0.834

$$$$
>  <Residue Sequence>
UAGAUAAUCUUGAACCUUC against UGP2

>  <Number>
0.118

$$$$
>  <Residue Sequence>
UCUGCUACUCCAUUGAUCU against TRMT12

>  <Number>
-1.63

$$$$
>  <Residue Sequence>
UUCGGUAAGACAUCAGUGG against STAG2

>  <Number>
0.75

$$$$
>  <Residue Sequence>
UGCUGUUCUGUGCUGUUCC against ARID5A

>  <Number>
-2.31

$$$$
>  <Residue Sequence>
AUUGUUACUAUUGGACAGG against RFPL4A

>  <Number>
0.248

$$$$
